Where do these numbers come from? They come from paper PMC3700404.

// values below are reported pKi
- subject.of.test: hCB2 C6.47(257)A mutant receptor (Homo sapiens, UniProt P34972, C257A)
- Sequence (P34972 whole entry C257A): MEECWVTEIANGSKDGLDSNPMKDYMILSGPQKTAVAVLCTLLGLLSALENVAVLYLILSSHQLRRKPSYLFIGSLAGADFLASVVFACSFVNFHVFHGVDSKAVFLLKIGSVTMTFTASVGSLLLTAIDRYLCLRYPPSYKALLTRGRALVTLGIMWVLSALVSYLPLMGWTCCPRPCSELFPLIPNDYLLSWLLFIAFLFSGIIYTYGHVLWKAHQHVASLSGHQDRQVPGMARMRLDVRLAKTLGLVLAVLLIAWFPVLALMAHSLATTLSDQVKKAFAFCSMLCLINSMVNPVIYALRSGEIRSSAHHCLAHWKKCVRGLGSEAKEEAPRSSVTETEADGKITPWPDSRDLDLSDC
- experiment.summary: Competitive binding assay, hCB2 C6.47
- cond: radioligand [3H]-CP55940; mean (95% CI)
Hey, just a heads up that pKi is the negative log base 10 of the concentration in molar.

// solved cases for pKi follow
* CCCCCCC(C)(C)c1cc(O)c2c(c1)OC(C)(C)[C@@H]1CC[C@@H](CO)C[C@@H]21 | 8.99
* CC(C)(CCCCCCN=C=S)c1cc(O)c2c(c1)OC(C)(C)C1CCC(CO)CC21 (single isomer, unassigned; (-)) | 9.15

API: the following record is the query input.
# query: pKi of entry CC(C)(CCCCCCBr)c1cc(O)c2c(c1)OC(C)(C)C1CCC(CO)CC21 (stereo not drawn)
9.06

* * *

- subject.of.test: hCB2 C6.47(257)S mutant receptor (Homo sapiens, UniProt P34972, C257S)
- Sequence (P34972 whole entry C257S): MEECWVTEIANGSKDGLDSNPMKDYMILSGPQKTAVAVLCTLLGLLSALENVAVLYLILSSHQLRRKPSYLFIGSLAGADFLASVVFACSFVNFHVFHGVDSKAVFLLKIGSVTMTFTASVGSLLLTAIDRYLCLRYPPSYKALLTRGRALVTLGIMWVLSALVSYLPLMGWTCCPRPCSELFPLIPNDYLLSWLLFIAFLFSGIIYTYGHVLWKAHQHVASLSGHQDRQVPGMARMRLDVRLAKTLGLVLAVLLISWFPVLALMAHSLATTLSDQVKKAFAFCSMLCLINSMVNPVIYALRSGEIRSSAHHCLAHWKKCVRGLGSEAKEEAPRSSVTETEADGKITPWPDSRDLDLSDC
- experiment.summary: Competitive binding assay, hCB2 C6.47
- cond: radioligand [3H]-CP55940; mean (95% CI)
// values below are reported pKi
Hey, just a heads up that pKi is the negative log base 10 of the concentration in molar.

* CC(C)(CCCCCCBr)c1cc(O)c2c(c1)OC(C)(C)C1CCC(CO)CC21 (stereo not drawn) | 8.82
* CC(C)(CCCCCCN=C=S)c1cc(O)c2c(c1)OC(C)(C)C1CCC(CO)CC21 (single isomer, unassigned; (-)) | 8.77

# query: pKi of entry CCCCCCC(C)(C)c1cc(O)c2c(c1)OC(C)(C)[C@@H]1CC[C@@H](CO)C[C@@H]21
8.82

* * *

- subject.of.test: hCB2 C6.47(257)S mutant receptor (Homo sapiens, UniProt P34972, C257S)
- experiment.summary: Inhibition of forskolin-stimulated cAMP accumulation, hCB2 C6.47
- cond: read-out: IC50, inhibition of forskolin-stimulated cAMP accumulation; HEK293 cells, 5 μM forskolin, 5 min; mean (95% CI)
measured.property: IC50 (nM)
Give the quantity in nM, number only.

* CCCCCCC(C)(C)c1cc(O)c2c(c1)OC(C)(C)[C@@H]1CC[C@@H](CO)C[C@@H]21 [AM-4056] | 8.82

API: the following record is the query input.
Record lookup: for hCB2 C6.47(257)S mutant receptor (Homo sapiens, UniProt P34972, C257S), what IC50 belongs to CC(C)(CCCCCCN=C=S)c1cc(O)c2c(c1)OC(C)(C)C1CCC(CO)CC21 (single isomer, unassigned; (-)) [AM-841] ?
2.88

* * *

// values below are reported pIC50
- subject.of.test: hCB2 C6.47(257)A mutant receptor (Homo sapiens, UniProt P34972, C257A)
- experiment.summary: Inhibition of forskolin-stimulated cAMP accumulation, hCB2 C6.47
- cond: read-out: IC50, inhibition of forskolin-stimulated cAMP accumulation; HEK293 cells, 5 μM forskolin, 5 min; mean (95% CI)
Hey, just a heads up that pIC50 is the negative log base 10 of the concentration in molar.

- CCCCCCC(C)(C)c1cc(O)c2c(c1)OC(C)(C)[C@@H]1CC[C@@H](CO)C[C@@H]21: 8.58

API: the following record is the query input.
# query: pIC50 of entry CC(C)(CCCCCCN=C=S)c1cc(O)c2c(c1)OC(C)(C)C1CCC(CO)CC21 (single isomer, unassigned; (-))
8.22

* * *

// values below are reported IC50
- subject.of.test: WT hCB2 receptor (Homo sapiens, UniProt P34972)
- Sequence (P34972 whole entry): as the sequence (P34972 whole entry C257A) above, with A257C counted along it
- experiment.summary: Inhibition of forskolin-stimulated cAMP accumulation, WT hCB2 cells
- cond: read-out: IC50, inhibition of forskolin-stimulated cAMP accumulation; HEK293 cells, 5 μM forskolin, 5 min; mean (95% CI)
Give the quantity in nM, number only.

# query: IC50 of entry CCCCCCC(C)(C)c1cc(O)c2c(c1)OC(C)(C)[C@@H]1CC[C@@H](CO)C[C@@H]21 [AM-4056]
3.27

# query: IC50 of entry CC(C)(CCCCCCN=C=S)c1cc(O)c2c(c1)OC(C)(C)C1CCC(CO)CC21 (single isomer, unassigned; (-)) [AM-841]
0.079

* * *

- subject.of.test: hCB2 C6.47(257)A mutant receptor (Homo sapiens, UniProt P34972, C257A)
- experiment.summary: Competitive binding assay, hCB2 C6.47
- cond: radioligand [3H]-WIN55212-2; mean (95% CI)
// values below are reported pKi
Hey, just a heads up that pKi is the negative log base 10 of the concentration in molar.

// solved cases for pKi follow
* CCCCCCC(C)(C)c1cc(O)c2c(c1)OC(C)(C)[C@@H]1CC[C@@H](CO)C[C@@H]21 [AM-4056] | 9.30
* CC(C)(CCCCCCN=C=S)c1cc(O)c2c(c1)OC(C)(C)C1CCC(CO)CC21 (single isomer, unassigned; (-)) [AM-841] | 9.15
* CN1CCCCC1Cn1cc(C(=O)c2ccccc2I)c2ccccc21 (stereo not shown) [AM-2233] | 9.30

API: the following record is the query input.
Record lookup: for hCB2 C6.47(257)A mutant receptor (Homo sapiens, UniProt P34972, C257A), what pKi belongs to CC(C)(CCCCCCBr)c1cc(O)c2c(c1)OC(C)(C)C1CCC(CO)CC21 (stereo not shown) [AM-4043] ?
9.10

* * *

- subject.of.test: hCB2 C6.47(257)S mutant receptor (Homo sapiens, UniProt P34972, C257S)
- experiment.summary: Competitive binding assay, hCB2 C6.47
- cond: radioligand [3H]-WIN55212-2; mean (95% CI)
measured.property: pKi
Hey, just a heads up that pKi is the negative log base 10 of the concentration in molar.

// solved cases for pKi follow
• CC(C)(CCCCCCN=C=S)c1cc(O)c2c(c1)OC(C)(C)C1CCC(CO)CC21 (single isomer, unassigned; (-)) [AM-841] = 8.82
• CCCCCCC(C)(C)c1cc(O)c2c(c1)OC(C)(C)[C@@H]1CC[C@@H](CO)C[C@@H]21 [AM-4056] = 8.92
• CN1CCCCC1Cn1cc(C(=O)c2ccccc2I)c2ccccc21 (stereo not shown) [AM-2233] = 9.10

API: the following record is the query input.
# query: pKi of entry CC(C)(CCCCCCBr)c1cc(O)c2c(c1)OC(C)(C)C1CCC(CO)CC21 (stereo not shown) [AM-4043]
8.85

* * *

- subject.of.test: hCB2 K3.28(109)A mutant receptor (Homo sapiens, UniProt P34972, K109A)
- Sequence (P34972 whole entry K109A): as the sequence (P34972 whole entry C257S) above, with K109A, S257C counted along it
- experiment.summary: Competitive binding assay, hCB2 K3.28
- cond: radioligand [3H]-CP55940; mean (95% CI)
// values below are reported pKi
Hey, just a heads up that pKi is the negative log base 10 of the concentration in molar.

# query: pKi of entry CCCCCCC(C)(C)c1cc(O)c2c(c1)OC(C)(C)[C@@H]1CC[C@@H](CO)C[C@@H]21
8.94

# query: pKi of entry CC(C)(CCCCCCN=C=S)c1cc(O)c2c(c1)OC(C)(C)C1CCC(CO)CC21 (single isomer, unassigned; (-))
8.64
